Provide the recorded Kp at 4 h for the entries that follow.
experiment: Evaluation of blood-brain barrier (BBB) permeability through oral administration; format: in vivo, mice; conditions: mouse, in vivo; mice, oral, dose 30 mg/kg, 4 hr; read-out: Mean brain-plasma drug ratio at 4 hr
I only need the number, thanks.

Q: Which measured Kp at 4 h value corresponds to CCCOc1c(C)cc(-c2ccc3c(c2)CCC(C)(C)[C@H]3NC(=O)O[C@@H]2CN3CCC2CC3)cc1C [Example 148] ?
Ans: 1.82

Q: Which measured Kp at 4 h value corresponds to CC(C)COc1ccc(-c2cc3c(cc2F)[C@H](NC(=O)O[C@@H]2CN4CCC2CC4)C(C)(C)C3)cc1 [Example 57] ?
Ans: 20.9

Q: Which measured Kp at 4 h value corresponds to Cc1cc(-c2ccc3c(c2)CC(C)(C)[C@H]3NC(=O)O[C@@H]2CN3CCC2CC3)ccc1OC(C)C [Example 34] ?
Ans: 14

Q: Which measured Kp at 4 h value corresponds to CCOc1ccc(-c2ccc3c(c2)CC(C)(C)[C@H]3NC(=O)O[C@@H]2CN3CCC2CC3)c(Cl)c1 [Example 44] ?
Ans: 4.79

Q: Which measured Kp at 4 h value corresponds to Cc1cc(OC(C)C)ccc1-c1ccc2c(c1)CC(C)(C)[C@H]2NC(=O)O[C@@H]1CN2CCC1CC2 [Example 36] ?
Ans: 3.65

Q: Which measured Kp at 4 h value corresponds to CC(C)Oc1ccc(-c2ccc3c(c2)CC(C)(C)[C@H]3NC(=O)O[C@@H]2CN3CCC2CC3)c(Cl)c1 [Example 32] ?
Ans: 4.23

Q: Which measured Kp at 4 h value corresponds to CC(C)Cc1ccc(-c2cc3c(cc2F)[C@H](NC(=O)O[C@@H]2CN4CCC2CC4)C(C)(C)C3)cc1 [Example 62] ?
Ans: 6.83

Q: Which measured Kp at 4 h value corresponds to CCOc1ccc(-c2cc3c(cc2F)[C@H](NC(=O)O[C@@H]2CN4CCC2CC4)C(C)(C)CC3)cc1 [Example 176] ?
Ans: 3.58

Q: Which measured Kp at 4 h value corresponds to CCOc1c(C)cc(-c2ccc3c(c2)CC(C)(C)[C@H]3NC(=O)O[C@@H]2CN3CCC2CC3)cc1C [Example 22] ?
Ans: 3.37

Q: Which measured Kp at 4 h value corresponds to CC(C)c1cccc(-c2ccc3c(c2)CCC(C)(C)[C@H]3NC(=O)O[C@@H]2CN3CCC2CC3)c1 [Example 162] ?
Ans: 3.71

Q: Which measured Kp at 4 h value corresponds to Cc1ccc(-c2cc3c(cc2F)[C@H](NC(=O)O[C@@H]2CN4CCC2CC4)C(C)(C)C3)cc1Cl [Example 84] ?
Ans: 7.23

Q: Which measured Kp at 4 h value corresponds to CC(C)Oc1ccc(-c2cc3c(cc2F)[C@H](NC(=O)O[C@@H]2CN4CCC2CC4)C(C)(C)C3)cc1F [Example 83] ?
Ans: 6.29

Q: Which measured Kp at 4 h value corresponds to CC(C)Oc1ccc(-c2ccc3c(c2)CCC(C)(C)[C@H]3NC(=O)O[C@@H]2CN3CCC2CC3)c(Cl)c1 [Example 168] ?
Ans: 1.18

Q: Which measured Kp at 4 h value corresponds to CC(C)Oc1ccc(-c2cc3c(cc2F)[C@H](NC(=O)O[C@@H]2CN4CCC2CC4)C(C)(C)C3)cc1 [Example 68] ?
Ans: 9.77

====

test: Evaluation of blood-brain barrier (BBB) permeability through oral administration; format: in vivo, mice; conditions: mouse, in vivo; mice, oral, dose 30 mg/kg, 4 hr; read-out: Mean drug concentrations in brain tissue at 4 hr
readout_type: concentration at 4 h (ng/g)
Record the value in ng/g, omitting the unit from your answer.

Q: Which measured concentration at 4 h value corresponds to COc1ccc(-c2cc3c(cc2F)[C@H](NC(=O)O[C@@H]2CN4CCC2CC4)C(C)(C)C3)cc1F ?
Ans: 4040

Q: Which measured concentration at 4 h value corresponds to CCCOc1c(C)cc(-c2cc3c(cc2F)[C@H](NC(=O)O[C@@H]2CN4CCC2CC4)C(C)(C)C3)cc1C ?
Ans: 1040

Q: Which measured concentration at 4 h value corresponds to CCOc1ccc(-c2cc3c(cc2F)[C@H](NC(=O)O[C@@H]2CN4CCC2CC4)C(C)(C)CC3)cc1 ?
Ans: 4860

Q: Which measured concentration at 4 h value corresponds to CCOc1c(C)cc(-c2ccc3c(c2)CC(C)(C)[C@H]3NC(=O)O[C@@H]2CN3CCC2CC3)cc1C ?
Ans: 4400

Q: Which measured concentration at 4 h value corresponds to Cc1cc(OC(C)C)ccc1-c1ccc2c(c1)CC(C)(C)[C@H]2NC(=O)O[C@@H]1CN2CCC1CC2 ?
Ans: 6650

Q: Which measured concentration at 4 h value corresponds to CC(C)c1cccc(-c2ccc3c(c2)CCC(C)(C)[C@H]3NC(=O)O[C@@H]2CN3CCC2CC3)c1 ?
Ans: 3570

Q: Which measured concentration at 4 h value corresponds to CCOc1ccc(-c2cc3c(cc2F)[C@H](NC(=O)O[C@@H]2CN4CCC2CC4)C(C)(C)C3)c(Cl)c1 ?
Ans: 5180

Q: Which measured concentration at 4 h value corresponds to CC1(C)Cc2cc(-c3ccc(OCC4CC4)cc3Cl)ccc2[C@@H]1NC(=O)O[C@@H]1CN2CCC1CC2 ?
Ans: 3640

Q: Which measured concentration at 4 h value corresponds to CC(C)Oc1ccc(-c2cc3c(cc2F)[C@H](NC(=O)O[C@@H]2CN4CCC2CC4)C(C)(C)C3)cc1F ?
Ans: 7370

Q: Which measured concentration at 4 h value corresponds to CCCOc1ccc(-c2cc3c(cc2F)[C@H](NC(=O)O[C@@H]2CN4CCC2CC4)C(C)(C)C3)cc1Cl ?
Ans: 972

Q: Which measured concentration at 4 h value corresponds to CCCOc1ccc(-c2ccc3c(c2)CC(C)(C)[C@H]3NC(=O)O[C@@H]2CN3CCC2CC3)cc1F ?
Ans: 4070

Q: Which measured concentration at 4 h value corresponds to CC(C)c1ccc(-c2cc3c(cc2F)[C@H](NC(=O)O[C@@H]2CN4CCC2CC4)C(C)(C)C3)cc1 ?
Ans: 4120

Q: Which measured concentration at 4 h value corresponds to COc1cc(-c2ccc3c(c2)CC(C)(C)[C@H]3NC(=O)O[C@@H]2CN3CCC2CC3)ccc1OC(C)C ?
Ans: 2010

Q: Which measured concentration at 4 h value corresponds to CCOc1ccc(-c2ccc3c(c2)CC(C)(C)[C@H]3NC(=O)O[C@@H]2CN3CCC2CC3)cc1Cl ?
Ans: 6030

Q: Which measured concentration at 4 h value corresponds to CCOc1ccc(-c2cc3c(cc2F)[C@H](NC(=O)O[C@@H]2CN4CCC2CC4)C(C)(C)C3)cc1Cl ?
Ans: 4790

====

Provide the recorded Kp at 4 h for the entries that follow.
assay: Evaluation of blood-brain barrier (BBB) permeability through oral administration; format: in vivo, mice; details: mouse, in vivo; mice, oral, dose 30 mg/kg, 4 hr; read-out: Mean brain-plasma drug ratio at 4 hr
I only need the number, thanks.

Q: Which measured Kp at 4 h value corresponds to CC(C)Oc1cccc(-c2ccc3c(c2)CCC(C)(C)[C@H]3NC(=O)O[C@@H]2CN3CCC2CC3)c1 [Example 165] ?
Ans: 2.83

Q: Which measured Kp at 4 h value corresponds to CCCOc1ccc(-c2ccc3c(c2)CC(C)(C)[C@H]3NC(=O)O[C@@H]2CN3CCC2CC3)cc1F [Example 20] ?
Ans: 7.12

Q: Which measured Kp at 4 h value corresponds to CCCOc1ccc(-c2cc3c(cc2F)[C@H](NC(=O)O[C@@H]2CN4CCC2CC4)C(C)(C)C3)cc1Cl [Example 87] ?
Ans: 8.57

Q: Which measured Kp at 4 h value corresponds to CCCc1ccc(-c2cc3c(cc2F)[C@H](NC(=O)O[C@@H]2CN4CCC2CC4)C(C)(C)C3)cc1 [Example 61] ?
Ans: 11.1

====

experiment: Evaluation of blood-brain barrier (BBB) permeability through oral administration; format: in vivo, mice; conditions: mouse, in vivo; mice, oral, dose 30 mg/kg, 4 hr; read-out: Mean drug concentrations in brain tissue at 4 hr
readout_type: concentration at 4 h (ng/g)
Record the value in ng/g, omitting the unit from your answer.

Q: Which measured concentration at 4 h value corresponds to CC(C)Oc1cccc(-c2ccc3c(c2)CCC(C)(C)[C@H]3NC(=O)O[C@@H]2CN3CCC2CC3)c1 ?
Ans: 2400

Q: Which measured concentration at 4 h value corresponds to CC1(C)Cc2cc(-c3ccc(OCC4CC4)c(Cl)c3)ccc2[C@@H]1NC(=O)O[C@@H]1CN2CCC1CC2 ?
Ans: 5510

Q: Which measured concentration at 4 h value corresponds to CC(C)Oc1ccc(-c2ccc3c(c2)CCC(C)(C)[C@H]3NC(=O)O[C@@H]2CN3CCC2CC3)c(Cl)c1 ?
Ans: 3370

Q: Which measured concentration at 4 h value corresponds to CCCOc1c(C)cc(-c2ccc3c(c2)CCC(C)(C)[C@H]3NC(=O)O[C@@H]2CN3CCC2CC3)cc1C ?
Ans: 1680

Q: Which measured concentration at 4 h value corresponds to CC(C)Cc1ccc(-c2cc3c(cc2F)[C@H](NC(=O)O[C@@H]2CN4CCC2CC4)C(C)(C)C3)cc1 ?
Ans: 2960

Q: Which measured concentration at 4 h value corresponds to CC(C)Oc1ccc(-c2ccc3c(c2)CC(C)(C)[C@H]3NC(=O)O[C@@H]2CN3CCC2CC3)cc1F ?
Ans: 9510

Q: Which measured concentration at 4 h value corresponds to CC(C)Oc1ccc(-c2cc3c(cc2F)[C@H](NC(=O)O[C@@H]2CN4CCC2CC4)C(C)(C)CC3)cc1Cl ?
Ans: 3020

Q: Which measured concentration at 4 h value corresponds to CCCOc1ccc(-c2ccc3c(c2)CC(C)(C)[C@H]3NC(=O)O[C@@H]2CN3CCC2CC3)cc1Cl ?
Ans: 1280

Q: Which measured concentration at 4 h value corresponds to CC(C)Oc1ccc(-c2cc3c(cc2F)[C@H](NC(=O)O[C@@H]2CN4CCC2CC4)C(C)(C)C3)c(Cl)c1 ?
Ans: 2230

Q: Which measured concentration at 4 h value corresponds to COc1ccc(-c2cc3c(cc2F)[C@H](NC(=O)O[C@@H]2CN4CCC2CC4)C(C)(C)C3)c(Cl)c1 ?
Ans: 4680

Q: Which measured concentration at 4 h value corresponds to CC(C)Oc1ccc(-c2cc3c(cc2F)[C@H](NC(=O)O[C@@H]2CN4CCC2CC4)C(C)(C)C3)cc1 ?
Ans: 13500

Q: Which measured concentration at 4 h value corresponds to Cc1cc(-c2ccc3c(c2)CC(C)(C)[C@H]3NC(=O)O[C@@H]2CN3CCC2CC3)ccc1OC(C)C ?
Ans: 10700

Q: Which measured concentration at 4 h value corresponds to CC(C)Oc1ccc(-c2cc3c(cc2F)[C@H](NC(=O)O[C@@H]2CN4CCC2CC4)C(C)(C)C3)cc1Cl ?
Ans: 5490

Q: Which measured concentration at 4 h value corresponds to CC(C)Oc1ccc(-c2ccc3c(c2)CCC(C)(C)[C@H]3NC(=O)O[C@@H]2CN3CCC2CC3)cc1F ?
Ans: 4840

Q: Which measured concentration at 4 h value corresponds to CCCOc1c(C)cc(-c2ccc3c(c2)CC(C)(C)[C@H]3NC(=O)O[C@@H]2CN3CCC2CC3)cc1C ?
Ans: 2750

Q: Which measured concentration at 4 h value corresponds to CCOc1ccc(-c2ccc3c(c2)CC(C)(C)[C@H]3NC(=O)O[C@@H]2CN3CCC2CC3)c(Cl)c1 ?
Ans: 8860

Q: Which measured concentration at 4 h value corresponds to COc1ccc(-c2cc3c(cc2F)[C@H](NC(=O)O[C@@H]2CN4CCC2CC4)C(C)(C)C3)cc1 ?
Ans: 5520

Q: Which measured concentration at 4 h value corresponds to CC(C)Oc1ccc(-c2ccc3c(c2)CC(C)(C)[C@H]3NC(=O)O[C@@H]2CN3CCC2CC3)c(Cl)c1 ?
Ans: 5650

Q: Which measured concentration at 4 h value corresponds to COc1c(C)cc(-c2cc3c(cc2F)[C@H](NC(=O)O[C@@H]2CN4CCC2CC4)C(C)(C)CC3)cc1C ?
Ans: 1510

Q: Which measured concentration at 4 h value corresponds to Cc1ccc(-c2cc3c(cc2F)[C@H](NC(=O)O[C@@H]2CN4CCC2CC4)C(C)(C)C3)cc1Cl ?
Ans: 4940

Q: Which measured concentration at 4 h value corresponds to CCCc1ccc(-c2cc3c(cc2F)[C@H](NC(=O)O[C@@H]2CN4CCC2CC4)C(C)(C)C3)cc1 ?
Ans: 4880

Q: Which measured concentration at 4 h value corresponds to COc1ccc(-c2ccc3c(c2)CC(C)(C)[C@H]3NC(=O)O[C@@H]2CN3CCC2CC3)cc1F ?
Ans: 3950

Q: Which measured concentration at 4 h value corresponds to CCc1cccc(-c2ccc3c(c2)CCC(C)(C)[C@H]3NC(=O)O[C@@H]2CN3CCC2CC3)c1 ?
Ans: 3720

Q: Which measured concentration at 4 h value corresponds to CCCOc1c(C)cc(-c2cc3c(cc2F)[C@H](NC(=O)O[C@@H]2CN4CCC2CC4)C(C)(C)CC3)cc1C ?
Ans: 848

Q: Which measured concentration at 4 h value corresponds to Cc1ccc(-c2ccc3c(c2)CC(C)(C)[C@H]3NC(=O)O[C@@H]2CN3CCC2CC3)cc1Cl ?
Ans: 7820

The reported numbers originate from patent US20240262819A1.
